testedSystem: cerebral receptor sites of the benzodiazepines
methodNotes: Affinity for the cerebral receptor sites of the benzodiazepines (displacement of 3H-Diazepam, method of Mohler et al.)
experimentalParameters: displacement of 3H-Diazepam from its binding site; Ki calculated from IC50, C and KD
pKi: −log10 of the molar value.
observable: pKi

INSERT INTO results (smi, observable, reading) VALUES
  ('COc1ccc2ncc(Cl)c(CCC3CCNCC3)c2c1', 'pKi', 4.92),
  ('Clc1cc2ccccc2nc1CCC1CCNCC1', 'pKi', 5.30),
  ('Clc1c(-c2ccccc2)nc2ccccc2c1CCC1CCNCC1', 'pKi', 6.30),
  ('Clc1cnc2ccccc2c1CC1CCNCC1', 'pKi', 5.30),
  ('Cc1nc2ccccc2c(CCC2CCNCC2)c1Cl', 'pKi', 6.00);

(a) Cc1cccc2c(CC3CCNCC3)c(Cl)cnc12
(b) Clc1cnc2ccccc2c1CCC1CCNCC1
// select label with min value of measured pKi from [ a , b ] Selection: enter the item's label.
a
(a: 5.00, b: 5.70)

// data source = patent US4493838A
